For each record, write down the corresponding self-cleavage kobs at 2500 uM GlcN6P.
B1: glmS ribozyme (parent)
chain: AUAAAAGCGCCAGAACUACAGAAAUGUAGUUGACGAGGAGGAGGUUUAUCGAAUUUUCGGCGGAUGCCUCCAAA

- Variants of: B1
- Run Description: self-cleavage kobs at 2500 uM GlcN6P; higher = faster cleavage; RNA array
- Run Parameters: with glucosamine-6-phosphate
Variants at the floor of the assay were thinned out.
Numbers only, in s⁻¹.

G44U U46G C67A    0.00376

Please look at the items below and tell me self-cleavage kobs at 2500 uM GlcN6P for each one, in order.
1. A12U U31G U69C
2. U54A C61G C71G
3. A15C C67G
4. G40A U54A
5. G29C A42G C67G

1: 0.0026; 2: 0.000139; 3: 8.12e-05; 4: 0.00212; 5: 0.000111

Please look at the items below and tell me self-cleavage kobs at 2500 uM GlcN6P for each one, in order.
1. A15G
2. A36U C58G C70A
3. U55C G66U
4. G41U A53U U56G

[0.0326, "4.59e-05", 0.00105, 0.00031]
